- procedureDetails: Mycobacterium tuberculosis growth inhibition, primary screen (AID 1259343)
- assayConditions: at 10 µM
The campaign covered roughly 6,200 compounds. About 2,900 (47%) were called active. Cut-off read from the data, not from the text of the source: active = inhibition above about 50%; inactive = the rest. So high a share suggests a set chosen from earlier hits. This is one part of the list.
A correct response names exactly one class from active, inactive

// below: answered compounds
compound="O=C(Cc1cccc(Cl)c1)N1CCOC(COCc2ccccc2F)C1 (stereo unspecified)" discretelabel=inactive
compound="CCOc1ccc(Oc2ccc(S(=O)(=O)NC(C)CC#N)cc2)cc1 (stereo unspecified)" discretelabel=inactive
compound=CC[n+]1c(-c2ccccc2)c2cc(N)ccc2c2ccc(N)cc21 discretelabel=active
compound=COc1ccc(-c2noc(COc3cccc4c3OCCO4)n2)cc1 discretelabel=active
compound="COc1cccc(CC(=O)N2CCOC(COc3ccc(Cl)c(C)c3)C2)c1 (stereo unspecified)" discretelabel=inactive

Next item in the queue.
Assay result, entry CC1CN(C(=O)Nc2ccccc2C(F)(F)F)c2cccnc2N1 (stereo unspecified) — outcome?
inactive

---

- procedureDetails: Mycobacterium tuberculosis growth inhibition, primary screen (AID 1259343)
- assayConditions: at 10 µM, stronger effect = higher value
The whole screen tested about 6,200 compounds, of which about 2,900 (47%) were called active. So high a share suggests a set chosen from earlier hits. The list shows a part of the results.
inhibition below 30% gives F; inhibition at or above it gives T.

Please review the following examples before continuing.
compound=O=C(CSc1ncnc2c1nnn2Cc1ccccc1)OCc1ccccc1 discretelabel=F
compound=O=C(NCCn1nc(-c2cccnc2)ccc1=O)Nc1ccc(C(F)(F)F)cc1 discretelabel=F
compound=O=C(CCl)N1CCN(c2ccccc2F)CC1 discretelabel=T
compound=CCOC(=O)c1sc2nc(C)nc(NCC(C)C)c2c1C discretelabel=F
compound=Cc1ccc(Cn2nnc3c(SCC(=O)OCc4ccccc4)ncnc32)cc1 discretelabel=T
compound=Cc1ccc(-c2cc(CNCc3ccco3)no2)c(C)c1 discretelabel=F
compound=O=C(NS(=O)(=O)c1ccc(Cl)cc1F)c1cccc2cn[nH]c12 discretelabel=F
compound=CC(=O)CSc1nc(C)nc2sc3c(c12)CCCC3 discretelabel=F

Evaluate Cc1ccc2c(=O)c(-c3cccc(C(F)(F)F)c3)coc2c1 : inhibition at minimum 30%?
T

Dear colleague, could you confirm whether COc1ccc(-n2nnc3c(SCc4cccc(F)c4)ncnc32)cc1 has inhibition at or above 30%?
T

Form field: inhibition at least 30%? Entry: COc1cccc(Nc2nccc3c2cc(-c2ccccc2)n3C)c1
T

Check the entry O=C(CCl)N1CCN(Cc2c(F)cccc2Cl)CC1 : does inhibition equal or exceed 30%?
T

I'd appreciate it if you could say whether NNc1ccc2c(Cl)cc(Cl)c(O)c2n1 has inhibition at least equal to 30%.
T

Confirm if inhibition reported for the compound Cc1csc(NC(=O)c2ccnc(N(C)C)c2)n1 is 30% or above.
F

Could you verify whether the entry FC(F)(F)c1cc(-c2ccco2)nc(NCC2CCCO2)n1 (configuration not stated) shows inhibition of no less than 30%?
F

Dear colleague, could you confirm whether O=[N+]([O-])c1ccc(N2CCN(Cc3c(F)cccc3Cl)CC2)cc1 has inhibition at or above 30%?
T

Threshold query (inhibition >= 30%) on Cc1nnc(NC(=O)c2ccc(C(F)(F)F)cc2)o1
T

Threshold query (inhibition >= 30%) on Cc1cc(C(C)(C)C)cc(C)c1CCN1CN(CCO)c2nc3ccccc3n2C1
T

Hi team, for Cc1ccc(C)c(C=CC(=O)c2ccc(O)cc2)c1 , is the recorded inhibition at or above 30%?
T

Quick check: does Cc1ccc(-n2nc(C(=O)c3ccc(Cl)cc3)c(N)c(C#N)c2=O)cc1 have inhibition greater than or equal to 30%?
T

Is reported inhibition greater than or equal to 30% here: COc1ccc2nc(-n3nc(C)cc3NC(C)=O)sc2c1
T

Reported inhibition at or above 30%? Cc1nc(SCC(=O)N2CCCCC2C)c2c3c(sc2n1)CCCC3 (configuration not stated)
T

Could you verify whether the entry CC(C)Oc1ccc(CNC(=O)c2cc(Cl)ccc2F)cn1 shows inhibition of no less than 30%?
F
